In this section, each of the binders is paired with its reported ELISA absorbance at 450 nm.
STUDY SYSTEM: T1, recombinant human DLL4 (Cat# 1506-D4/CF, R&D Systems) (human, UniProt Q9NR61 27-529)
T1 construct: Bought protein; also called hDLL4; rHuman DLL4
PROCEDURE TEXT: ELISA, DLL4 coated, Fab 0.74 nM

- BINDER: "Fab VH5-51_IGHD5-18*01>3_IGHJ4*01 G100K/G104T G24A/S28R/G35V & V3-4_IGLJ1*01 (Fab, V domains shown, Fab made in E. coli: VH on CH1 with His6 and Flag tags (Plasmid A), VL on lambda CL (Plasmid E); also called H: KT ARV & L: wt) VH: EVQLVQSGAEVKKPGESLKISCKASGYRFTSYWIVWVRQMPGKGLEWMGIIYPGDSDTRYSPSFQGQVTISADKSISTAYLQWSSLKASDTAMYYCARRKYSYTYDYFDYWGQGTLVTVSS VL: QTVVTQEPSFSVSPGGTVTLTCGLSSGSVSTSYYPSWYQQTPGQAPRTLIYSTNTRSSGVPDRFSGSILGNKAALTITGAQADDESDYYCVLYMGSGISYVFGTGTKVTVL"
  ELISA absorbance at 450 nm: "0.008 A450"
- BINDER: "Fab VH1-46_IGHD6-6*01_IGHJ1*01 S102A/S103P/S104F/H111F N52L/S54T/G56H & L6_IGKJ1*01 S28N/S30D/S31H S52L/A55G (Fab, V domains shown, Fab made in E. coli: VH on CH1 with His6 and Flag tags (Plasmid A), VL on kappa CL (Plasmid C); also called H: APFF LTH & L: NDH LG) VH: QVQLVQSGAEVKKPGASVKVSCKASGYTFTSYYMHWVRQAPGQGLEWMGIILPTGHSTSYAQKFQGRVTMTRDTSTSTVYMELSSLRSEDTAVYYCAREEYAPFSAEYFQFWGQGTLVTVSS VL: EIVLTQSPATLSLSPGERATLSCRASQNVDHYLAWYQQKPGQAPRLLIYDALNRGTGIPARFSGSGSGTDFTLTISSLEPEDFAVYYCQQRSNWPPWTFGQGTKVEIKR"
  ELISA absorbance at 450 nm: "0.368 A450"
- BINDER: "Fab VH5-51_IGHD5-18*01>3_IGHJ4*01 G100K/G104T G24L/S28R/G35V & V3-4_IGLJ1*01 (Fab, V domains shown, Fab made in E. coli: VH on CH1 with His6 and Flag tags (Plasmid A), VL on lambda CL (Plasmid E); also called H: KT LRV & L: wt) VH: EVQLVQSGAEVKKPGESLKISCKLSGYRFTSYWIVWVRQMPGKGLEWMGIIYPGDSDTRYSPSFQGQVTISADKSISTAYLQWSSLKASDTAMYYCARRKYSYTYDYFDYWGQGTLVTVSS VL: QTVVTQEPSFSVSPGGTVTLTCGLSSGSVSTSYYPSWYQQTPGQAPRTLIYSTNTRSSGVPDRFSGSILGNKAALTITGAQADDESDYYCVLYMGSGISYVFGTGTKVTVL"
  ELISA absorbance at 450 nm: "0.006 A450"

Provenance of the data: patent US20110318339A1
